Entries below carry reported log10 MIC on Staphylococcus aureus ATCC 25923.
Hey, these are logged values: log10 of MIC, µM being the unit before logging.

>>> measuredresult("CC(C)C[C@H](NC(=O)[C@H](CC(C)C)NC(=O)[C@H](CC(C)C)NC(=O)[C@@H]1CCCN1C(=O)[C@H](CC(C)C)NC(=O)[C@@H](N)Cc1ccccc1)C(=O)N[C@@H](C)C(=O)NCC(=O)N[C@@H](CC(C)C)C(=O)N1CCC[C@H]1C(=O)N[C@@H](CCCCN)C(=O)N[C@@H](CC(C)C)C(=O)N[C@@H](CC(C)C)C(=O)N[C@H]1CSSC[C@@H](C(=O)O)NC(=O)[C@H](CCCCN)NC(=O)[C@H](CCCCN)NC(=O)[C@H](Cc2ccccc2)NC(=O)[C@H](Cc2ccccc2)NC(=O)[C@H](CC(C)C)NC1=O [FLPLLLAGLPKLLCLFFKKC]")
1.18
>>> measuredresult("CC[C@H](C)[C@H](NC(=O)[C@H](C)NC(=O)[C@@H](NC(=O)[C@H](CCCCN)NC(=O)[C@H](C)NC(=O)[C@H](CC(C)C)NC(=O)[C@H](CCCCN)NC(=O)CNC(=O)[C@H](CC(C)C)NC(=O)[C@@H](NC(=O)[C@H](CO)NC(=O)CNC(=O)[C@H](C)NC(=O)[C@H](CCCCN)NC(=O)[C@H](CO)NC(=O)[C@H](C)NC(=O)[C@H](CCSC)NC(=O)CN)C(C)C)C(C)C)C(=O)NCC(=O)N[C@@H](C)C(=O)N[C@@H](CC(C)C)C(N)=O [GMASKAGSVLGKLAKVAIGAL]")
2.00
>>> measuredresult("CC[C@H](C)[C@H](NC(=O)[C@H](CCCCN)NC(=O)CNC(=O)[C@H](C)NC(=O)[C@@H](NC(=O)[C@H](CO)NC(=O)CNC(=O)[C@H](C)NC(=O)[C@H](CCCCN)NC(=O)[C@H](CO)NC(=O)[C@H](C)NC(=O)[C@H](CCSC)NC(=O)CN)C(C)C)C(=O)N[C@@H](C)C(=O)N[C@@H](CCCCN)C(=O)N[C@@H](Cc1ccccc1)C(=O)N[C@@H](C)C(=O)N[C@@H](CC(C)C)C(=O)NCC(=O)N[C@@H](C)C(=O)N[C@@H](CC(C)C)C(N)=O [GMASKAGSVAGKIAKFALGAL]")
1.90
>>> measuredresult("CSCC[C@H](NC(=O)[C@H](CCCN=C(N)N)NC(=O)[C@H](Cc1c[nH]c2ccccc12)NC(=O)[C@H](C)NC(=O)[C@H](Cc1c[nH]c2ccccc12)NC(=O)[C@H](CCCN=C(N)N)NC(=O)[C@H](CCCN=C(N)N)NC(=O)[C@H](C)NC(=O)[C@H](CCCCN)NC(=O)[C@@H](N)Cc1ccccc1)C(=O)N[C@@H](CCCCN)C(=O)O [FKARRWAWRMK]")
1.51

Turning to the following molecule.
Query block: Please state recorded log10 MIC (tested on Staphylococcus aureus ATCC 25923) of CC[C@H](C)[C@H](NC(=O)[C@H](CCCN=C(N)N)NC(=O)[C@H](CCCCN)NC(=O)[C@H](CC(C)C)NC(=O)[C@H](CC(C)C)NC(=O)CN)C(=O)N[C@@H](CCCCN)C(=O)N[C@@H](Cc1c[nH]c2ccccc12)C(=O)N[C@@H](CC(C)C)C(=O)N[C@@H](CC(C)C)C(N)=O [GLLKRIKWLL]
Result block: 0.51
